Assay system: ATP-dependent potassium channels (K+ATP) (Rattus norvegicus)
Construct: the potassium channels derive from a rat's cerebral cortex; tissue CEREP; host or cells: rat cerebral cortex
Assay method text: [3H]glibenclamide binding to ATP-dependent potassium channels of rat cerebral cortex
Test settings: 1 h; 300 nM; specific displacement of [3H]glibenclamide 0.1 nM; read-out: KATP binding (300 nM)
Label true (1) when inhibition at 0.3 µM is at or above 60%; anything below gets false (0).

Below are worked cases with known answers.
CC(C)CC(NC(=O)Cc1ccc(OC(C)(C)C(=O)O)c(Cl)c1)c1ccccc1N1CCCCC1 (centres unmarked) :: false (0)
CCCCC(c1ccccc1N1CCCCC1)N(CC(C)C)C(=O)Cc1ccc(OC(C)(C)C(=O)O)cc1 (centres unmarked) :: false (0)
CC(C)CC(NC(=O)Cc1ccc(OC(C)(C)C(=O)NS(=O)(=O)C(F)(F)F)cc1)c1ccccc1N1CCCCC1 (centres unmarked) :: true (1)
CC(C)CC(NC(=O)Cc1ccc(OC(C)(C)C(=O)O)cc1)c1ccc(C(F)(F)F)cc1N1CCCCC1 (centres unmarked) :: true (1)
CC(C)CC(NC(=O)Cc1ccc(OC(C)(C)C(=O)NS(=O)(=O)c2ccccc2)cc1)c1ccccc1N1CCCCC1 (centres unmarked) :: false (0)

Problem: Please check the record CCC(Oc1ccc(CC(=O)NC(CC(C)C)c2ccccc2N2CCCCC2)cc1)C(=O)O (centres unmarked) and state if its inhibition at 0.3 µM is at or above 60%.
Result: true (1)

Problem: Please check the record CC(C)(Oc1ccc(CC(=O)NC(c2ccccc2)c2ccccc2N2CCCCC2)cc1)C(=O)O (centres unmarked) and state if its inhibition at 0.3 µM is at or above 60%.
Result: true (1)

Problem: Please check the record CCCCC(NC(=O)Cc1ccc(OC(C)(C)C(=O)NS(=O)(=O)c2ccccc2)cc1)c1ccccc1N1CCCCC1 (centres unmarked) and state if its inhibition at 0.3 µM is at or above 60%.
Result: false (0)

* * *

Assay system: ATP-dependent potassium channels (K+ATP) (Rattus norvegicus, UniProt Q09429)
Construct: the potassium channels derive from a rat's cerebral cortex; tissue CEREP; host or cells: rat cerebral cortex
Sequence (Q09429 whole entry): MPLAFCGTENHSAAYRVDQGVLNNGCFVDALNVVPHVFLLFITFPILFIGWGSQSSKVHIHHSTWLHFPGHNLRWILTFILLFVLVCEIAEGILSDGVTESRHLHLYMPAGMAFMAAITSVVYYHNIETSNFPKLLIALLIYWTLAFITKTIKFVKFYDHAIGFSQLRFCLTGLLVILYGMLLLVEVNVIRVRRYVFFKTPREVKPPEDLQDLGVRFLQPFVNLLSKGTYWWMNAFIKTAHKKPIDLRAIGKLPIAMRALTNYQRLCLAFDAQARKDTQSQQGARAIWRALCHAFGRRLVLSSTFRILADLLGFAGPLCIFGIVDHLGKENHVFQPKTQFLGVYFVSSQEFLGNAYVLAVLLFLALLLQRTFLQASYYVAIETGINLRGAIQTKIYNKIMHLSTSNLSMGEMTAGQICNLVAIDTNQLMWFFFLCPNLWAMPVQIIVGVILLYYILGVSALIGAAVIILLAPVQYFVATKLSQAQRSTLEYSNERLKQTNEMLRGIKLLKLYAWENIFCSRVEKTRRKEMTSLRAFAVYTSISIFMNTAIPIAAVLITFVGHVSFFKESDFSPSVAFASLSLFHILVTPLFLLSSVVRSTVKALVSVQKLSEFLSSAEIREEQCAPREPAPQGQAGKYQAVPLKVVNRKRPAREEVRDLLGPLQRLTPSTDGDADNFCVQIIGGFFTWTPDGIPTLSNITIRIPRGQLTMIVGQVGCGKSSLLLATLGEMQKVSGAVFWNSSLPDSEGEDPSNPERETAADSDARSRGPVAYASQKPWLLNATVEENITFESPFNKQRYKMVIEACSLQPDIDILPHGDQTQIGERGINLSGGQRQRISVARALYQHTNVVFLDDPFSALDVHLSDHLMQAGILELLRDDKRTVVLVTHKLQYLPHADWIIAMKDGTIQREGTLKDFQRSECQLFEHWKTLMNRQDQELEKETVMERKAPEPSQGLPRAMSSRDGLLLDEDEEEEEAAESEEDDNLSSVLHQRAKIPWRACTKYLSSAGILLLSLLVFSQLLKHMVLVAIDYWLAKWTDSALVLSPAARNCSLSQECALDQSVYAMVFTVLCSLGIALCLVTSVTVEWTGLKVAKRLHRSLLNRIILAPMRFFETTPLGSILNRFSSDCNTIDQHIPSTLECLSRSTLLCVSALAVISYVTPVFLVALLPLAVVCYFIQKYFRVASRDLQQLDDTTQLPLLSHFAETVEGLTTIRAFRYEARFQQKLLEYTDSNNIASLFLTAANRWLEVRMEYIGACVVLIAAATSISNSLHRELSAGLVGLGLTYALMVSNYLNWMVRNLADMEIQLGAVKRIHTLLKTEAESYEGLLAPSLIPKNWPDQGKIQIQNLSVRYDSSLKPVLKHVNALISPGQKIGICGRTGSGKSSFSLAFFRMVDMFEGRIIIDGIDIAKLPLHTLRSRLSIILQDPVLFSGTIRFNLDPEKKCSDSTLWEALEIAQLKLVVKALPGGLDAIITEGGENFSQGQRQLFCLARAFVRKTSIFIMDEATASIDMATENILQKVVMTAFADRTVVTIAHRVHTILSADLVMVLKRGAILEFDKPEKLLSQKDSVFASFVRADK
Sequence (P70673 whole entry partner): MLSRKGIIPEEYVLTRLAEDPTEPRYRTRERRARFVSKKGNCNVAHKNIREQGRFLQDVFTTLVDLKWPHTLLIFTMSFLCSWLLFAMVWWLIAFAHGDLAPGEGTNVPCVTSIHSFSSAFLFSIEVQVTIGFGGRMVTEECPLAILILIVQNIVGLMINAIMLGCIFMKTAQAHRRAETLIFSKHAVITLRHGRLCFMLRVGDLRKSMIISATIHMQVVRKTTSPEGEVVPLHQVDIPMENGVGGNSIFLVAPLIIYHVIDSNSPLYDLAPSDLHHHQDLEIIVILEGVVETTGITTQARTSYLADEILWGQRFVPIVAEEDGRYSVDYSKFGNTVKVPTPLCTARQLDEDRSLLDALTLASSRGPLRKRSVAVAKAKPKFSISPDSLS
Assay method text: [3H]glibenclamide binding to ATP-dependent potassium channels of rat cerebral cortex
Test settings: 1 h; 300 nM; specific displacement of [3H]glibenclamide 0.1 nM; read-out: KATP binding (300 nM)
Label Satisfied when inhibition at 0.3 µM is at or above 80%; anything below gets Not satisfied.

CC(C)CC(NC(=O)Cc1ccc(OC(C(=O)O)C(C)C)cc1)c1ccccc1N1CCCCC1 (centres unmarked) [Compound 26] :: Satisfied
CCN(CC)c1ccccc1C(CC(C)C)NC(=O)Cc1ccc(OC(C)(C)C(=O)O)cc1 (centres unmarked) [Compound 20] :: Satisfied
CC(C)(Oc1ccc(CC(=O)NC(Cc2ccccc2)c2ccccc2N2CCCCC2)cc1)C(=O)NS(C)(=O)=O (centres unmarked) [Compound 62] :: Not satisfied
CC(C)CC(NC(=O)Cc1ccc(OCC(=O)O)cc1)c1ccccc1N1CCCCC1 (centres unmarked) [Compound 23] :: Satisfied

Problem: Please check the record CC(C)CC(NC(=O)Cc1ccc(OCCCC(C)(C)C(=O)O)cc1)c1ccccc1N1CCCCC1 (centres unmarked) [Compound 28] and state if its inhibition at 0.3 µM is at or above 80%.
Result: Not satisfied

Problem: Please check the record CCCCC(NC(=O)Cc1ccc(OC(C)(C)C(=O)O)cc1)c1ccccc1O (centres unmarked) [Compound 44] and state if its inhibition at 0.3 µM is at or above 80%.
Result: Not satisfied

Problem: Please check the record CC(C)CC(NC(=O)Cc1ccc(OC(C)(C)C(=O)O)cc1)c1cc(Br)ccc1N1CCCCC1 (centres unmarked) [Compound 37] and state if its inhibition at 0.3 µM is at or above 80%.
Result: Not satisfied

Problem: Please check the record CC(C)CC(NC(=O)Cc1ccc(OC(C)C(=O)O)cc1)c1ccccc1N1CCCCC1 (centres unmarked) [Compound 24] and state if its inhibition at 0.3 µM is at or above 80%.
Result: Satisfied
